# Tested on: U2OS
# Assay Method Text: Multiplex assay against U2OS
# Type: toxicity, cell-based
# Cond: human, 12 h, 1 µM, compound concentration 1 uM, replicate 2
Lab note: compare Population Tubulin-Different-Phenotype (%) against 30%. Equal or greater, write label 1. Smaller, write label 0.

Known results for molecules:
[
  {
    "Molecule": "COc1cccc2cc(-c3nc([C@H]4CC[C@H](C(=O)O)CC4)n4ncnc(N)c34)[nH]c12",
    "Experimental Target": "U2OS",
    "Assigned Class": "label 1"
  },
  {
    "Molecule": "C=CCn1c(=O)c2cnc(Nc3ccc(N4CCN(C)CC4)cc3)nc2n1-c1cccc(C(C)(C)O)n1",
    "Experimental Target": "U2OS",
    "Assigned Class": "label 0"
  }
]

Can CCCS(=O)(=O)Nc1ccc(F)c(C(=O)c2c[nH]c3ncc(Cl)cc23)c1F be said to have Population Tubulin-Different-Phenotype (%) at or above 30%? label 0

# repeat for COC(=N)c1nc2ccc3ncnc(Nc4ccc(OC)cc4F)c3c2s1 label 1

# repeat for CN1C2CCC1CC(OC(c1ccc(F)cc1)c1ccc(F)cc1)C2.Cl (configuration not stated) label 0

# repeat for CCNc1cc(N[C@H]2CC[C@H](O)CC2)nc(Nc2ccc3c(ccn3Cc3ccccc3)c2)n1 label 1

# repeat for CCn1cc(-c2ccnc3[nH]c(-c4cccc(CN(C)C)c4)cc23)c(-c2ccc(NC(=O)N(C)C)cc2)n1 label 0
